These data points were gathered from patent US20030186281A1.

Tested on: tet operator sequence
Assay: β-galactosidase activity of a tetracycline-regulated promoter in transformed E. coli with revTetR, in the presence and absence of anhydrotetracycline (atc)
Type: cell-based, Escherichia coli
Conditions: RevTetR isolate cultured in the absence of anhydrotetracycline (ATC)
Experimental: The relative activity of revTetR repressors was determined at 28° C. and 37° C. for each clone by measuring β-galactosidase activity of a tetracycline-regulated promoter in transformed Escherichia coli in the presence and absence of the tetracycline analog, anhydrotetracycline (atc). The relative β-galactosidase activity was measured in standard Miller units and is presented as the percent of maximal expression as measured in the absence of Tet repressor. […]
Measurement Kind: β-Galactosidase Activity, Cultured Without ATC
Give bare numbers.

Below are worked cases with known answers.
[
  {
    "Molecule": "TetRrevAtc4-48: revTetR(BD) D53N A54S L55L A56P V57V A61A R62L (protein, Modified tetracycline repressor, revTetR(BD) D53N A54S L55L A56P V57V A61A R62L) MSRLDKSKVINSALELLNEVGIEGLTTRKLAQKLGVEQPTLYWHVKNKRALLNSLPPEILALHHDYSLPAAGESWQSFLRNNAMSFRRALLRYRDGAKVHLGTRPDEKQYDTVETQLRFMTENGFSLRDGLYAISAVSHFTLGAVLEQQEHTAALTDRPAAPDENLPPLLREALQIMDSDDGEQAFLHGLESLIRGFEVQLTALLQIV",
    "Experimental Result": 110.179
  },
  {
    "Molecule": "TetRrev6-34: revTetR(BD) R94L D95A H100 (protein, H100 change unspecified; Modified tetracycline repressor, revTetR(BD) R94L D95A H100) MSRLDKSKVINSALELLNEVGIEGLTTRKLAQKLGVEQPTLYWHVKNKRALLDALAVEILARHHDYSLPAAGESWQSFLRNNAMSFRRALLRYLAGAKVQLGTRPDEKQYDTVETQLRFMTENGFSLRDGLYAISAVSHFTLGAVLEQQEHTAALTDRPAAPDENLPPLLREALQIMDSDDGEQAFLHGLESLIRGFEVQLTALLQIV",
    "Experimental Result": 85.725
  },
  {
    "Molecule": "TetRrevAtc4-53: revTetR(BD) D53F L55M I59S H63Q (protein, Modified tetracycline repressor, revTetR(BD) D53F L55M I59S H63Q) MSRLDKSKVINSALELLNEVGIEGLTTRKLAQKLGVEQPTLYWHVKNKRALLFAMAVESLARQHDYSLPAAGESWQSFLRNNAMSFRRALLRYRDGAKVHLGTRPDEKQYDTVETQLRFMTENGFSLRDGLYAISAVSHFTLGAVLEQQEHTAALTDRPAAPDENLPPLLREALQIMDSDDGEQAFLHGLESLIRGFEVQLTALLQIV",
    "Experimental Result": 87.055
  }
]

[ask] // query β-Galactosidase Activity, Cultured Without ATC value for entry TetRrev96/99-1: revTetR(BD) G96H V99R (protein, Modified tetracycline repressor, revTetR(BD) G96H V99R) MSRLDKSKVINSALELLNEVGIEGLTTRKLAQKLGVEQPTLYWHVKNKRALLDALAVEILARHHDYSLPAAGESWQSFLRNNAMSFRRALLRYRDHAKRHLGTRPDEKQYDTVETQLRFMTENGFSLRDGLYAISAVSHFTLGAVLEQQEHTAALTDRPAAPDENLPPLLREALQIMDSDDGEQAFLHGLESLIRGFEVQLTALLQIV
[reply] 58.4545
